Data provenance: patent US12612397B2

# System: MDR1
# run-description: in vitro
# test-conditions: dog, MDCK-MDR1, pH 7.4
Below is a list of entries, each paired with its recorded Papp A→B at 120 min, 5 μM value.
A complete answer gives the number and then names the unit.

Consider the following illustrative entries.
CN(c1ncc(-c2ccc(-c3cnn(C)c3)cc2O)nn1)[C@H]1C[C@@H]2CCC[C@@H](N2)[C@H]1F (single isomer, unassigned)
6.89 ×10⁻⁶ cm/s
CN(c1ncc(-c2cc3ccncc3s2)nn1)[C@@H]1C[C@H]2CC[C@H](N2)[C@@H]1F (single isomer, unassigned)
13.5 ×10⁻⁶ cm/s
CN(c1ncc(-c2cc3ccncc3s2)nn1)[C@H]1C[C@@H]2CC[C@@H](N2)[C@H]1F (single isomer, unassigned)
12.9 ×10⁻⁶ cm/s
CN(c1ncc(-c2ccc(-c3cn[nH]c3)cc2O)nn1)[C@H]1C[C@@H]2CC[C@@H](N2)[C@H]1F (single isomer, unassigned)
2.95 ×10⁻⁶ cm/s
CN(c1ncc(-c2ccc(-c3cnn(C)c3)cc2O)nn1)[C@@H]1C[C@H]2CCC[C@H](N2)[C@@H]1F (single isomer, unassigned)
4.48 ×10⁻⁶ cm/s

Query: Record request: Papp A→B at 120 min, 5 μM value, item CN(C)C(=O)c1cc2cc(O)c(-c3cnc(N(C)[C@H]4C[C@@H]5CC[C@@H](N5)[C@H]4F)nn3)cc2o1 (single isomer, unassigned)
Result: 2.4 ×10⁻⁶ cm/s

Query: Record request: Papp A→B at 120 min, 5 μM value, item CN(C)C(=O)c1cc2cc(O)c(-c3cnc(N(C)[C@@H]4C[C@H]5CC[C@H](N5)[C@@H]4F)nn3)cc2o1 (single isomer, unassigned)
Result: 2.55 ×10⁻⁶ cm/s

Query: Record request: Papp A→B at 120 min, 5 μM value, item CN(c1ncc(-c2ccc(-c3cn[nH]c3)cc2O)nn1)[C@@H]1C[C@H]2CC[C@H](N2)[C@@H]1F (single isomer, unassigned)
Result: 3.47 ×10⁻⁶ cm/s
